- System: Pseudoperonospora cubensis
- Assay protocol: Fungicidal activity against Pseudoperonospora cubensis administered through preventive foliar spraying of compound at 100 ppm 1 day before fungal inoculation on cucumber plants assessed as prevention of cucumber downy mildew measured 6 days after inoculation under greenhouse conditions
- Assay type: functional
Listed compounds paired with reported Activity
Express the result in % but write the number alone.

Solved cases below.
>  <Compound>
CCSP(=NP(=O)(c1ccccc1)c1ccccc1)(c1ccccc1)c1ccccc1

>  <Target of assay>
Pseudoperonospora cubensis

>  <Readout kind>
Activity

>  <Recorded value>
82

$$$$
>  <Compound>
CSP(=NP(=S)(c1ccccc1)c1ccccc1)(c1ccccc1)c1ccccc1

>  <Target of assay>
Pseudoperonospora cubensis

>  <Readout kind>
Activity

>  <Recorded value>
82

$$$$
>  <Compound>
CCSP(=NP(=S)(c1ccccc1)c1ccccc1)(c1ccccc1)c1ccccc1

>  <Target of assay>
Pseudoperonospora cubensis

>  <Readout kind>
Activity

>  <Recorded value>
79

$$$$
>  <Compound>
O=C(CSP(=NP(=S)(c1ccccc1)c1ccccc1)(c1ccccc1)c1ccccc1)NCc1ccccc1

>  <Target of assay>
Pseudoperonospora cubensis

>  <Readout kind>
Activity

>  <Recorded value>
87

$$$$
>  <Compound>
S=P(N=P(SCc1ccccc1)(c1ccccc1)c1ccccc1)(c1ccccc1)c1ccccc1

>  <Target of assay>
Pseudoperonospora cubensis

>  <Readout kind>
Activity

>  <Recorded value>
100

$$$$
>  <Compound>
C/C=C/CSP(=NP(=O)(c1ccccc1)c1ccccc1)(c1ccccc1)c1ccccc1

>  <Target of assay>
Pseudoperonospora cubensis

>  <Readout kind>
Activity

>  <Recorded value>
79

$$$$

Quick check: Activity of CCOC(=O)C(C)SP(=NP(=S)(c1ccccc1)c1ccccc1)(c1ccccc1)c1ccccc1 (centres undefined) ? 85

Quick check: Activity of O=C(CSP(=NP(=O)(c1ccccc1)c1ccccc1)(c1ccccc1)c1ccccc1)Nc1ccccc1 ? 91

Quick check: Activity of N#CCSP(=NP(=O)(c1ccccc1)c1ccccc1)(c1ccccc1)c1ccccc1 ? 89

Quick check: Activity of CCOC(=O)C(C)SP(=NP(=O)(c1ccccc1)c1ccccc1)(c1ccccc1)c1ccccc1 (centres undefined) ? 90

Quick check: Activity of O=P(N=P(SCc1ccccc1)(c1ccccc1)c1ccccc1)(c1ccccc1)c1ccccc1 ? 100

====

- Tested on: Cucumis sativus
- Assay protocol: Toxicity against Pseudoperonospora cubensis infected Cucumis sativus (cucumber) plants administered through preventive foliar spraying of compound at 25 to 100 ppm 1 day before fungal inoculation on cucumber plants measured 6 days after inoculation under greenhouse conditions
- Type: organism-based
- Settings: in vivo, other, 144 h
Readout kind: Activity

Solved cases below.
>  <Compound>
O=C(CSP(=NP(=O)(c1ccccc1)c1ccccc1)(c1ccccc1)c1ccccc1)Nc1ccccc1

>  <Readout kind>
Activity

>  <Recorded value>
Non-toxic

$$$$
>  <Compound>
CCSP(=NP(=O)(c1ccccc1)c1ccccc1)(c1ccccc1)c1ccccc1

>  <Readout kind>
Activity

>  <Recorded value>
Non-toxic

$$$$
>  <Compound>
O=C(CSP(=NP(=O)(c1ccccc1)c1ccccc1)(c1ccccc1)c1ccccc1)NCc1ccccc1

>  <Readout kind>
Activity

>  <Recorded value>
Non-toxic

$$$$
>  <Compound>
O=C(CSP(=NP(=S)(c1ccccc1)c1ccccc1)(c1ccccc1)c1ccccc1)NCc1ccccc1

>  <Readout kind>
Activity

>  <Recorded value>
Non-toxic

$$$$

Quick check: Activity of CCOC(=O)C(C)SP(=NP(=O)(c1ccccc1)c1ccccc1)(c1ccccc1)c1ccccc1 (centres undefined) ? Non-toxic

Quick check: Activity of S=P(N=P(SCc1ccccc1)(c1ccccc1)c1ccccc1)(c1ccccc1)c1ccccc1 ? Non-toxic

Quick check: Activity of C/C=C/CSP(=NP(=O)(c1ccccc1)c1ccccc1)(c1ccccc1)c1ccccc1 ? Non-toxic

====

Listed compounds paired with reported Activity
- Tested on: Pseudoperonospora cubensis
- Assay protocol: Fungicidal activity against Pseudoperonospora cubensis administered through preventive foliar spraying of compound at 100 ppm 1 day before fungal inoculation on cucumber plants assessed as prevention of cucumber downy mildew measured 6 days after inoculation under greenhouse conditions
- Format: functional
Express the result in % but write the number alone.

Solved cases below.
>  <Smiles input>
O=C(CSP(=NP(=O)(c1ccccc1)c1ccccc1)(c1ccccc1)c1ccccc1)NCc1ccccc1

>  <Target of assay>
Pseudoperonospora cubensis

>  <Recorded value>
93

$$$$
>  <Smiles input>
CCOC(=O)CSP(=NP(=O)(c1ccccc1)c1ccccc1)(c1ccccc1)c1ccccc1

>  <Target of assay>
Pseudoperonospora cubensis

>  <Recorded value>
92

$$$$

Attention now shifts to the item below.
Quick check: Activity of CSP(=NP(=O)(c1ccccc1)c1ccccc1)(c1ccccc1)c1ccccc1 ? 80
